measured_on: biotin-labeled SARS-COV-2 RBD domain (SARS-CoV-2, UniProt P0DTC2 319-541)
test_details: SPR, Biacore T200, biotin-RBD on SA chip, antibody as analyte
pKd: −log10 of the molar value.
measured_endpoint: pKd

## Task What value of measured pKd is listed for ABU-211 (antibody, V domains shown) VH: EAQLVESGGGLVQPGRSLTVSCAVSGFTFDDYAMHWVRQAPGKGLEWVSSISWNSEKIAYADSVKGRFTVSRDNAKNSLYLQMTSLRPEDTALYYCARDKGSGSYYSGAYYYYMDVWGKGTTVTVSS VL: SDALTQPPSVSVAPGKTAAITCGGDNIGSKNVHWYQQKPGQAPLLVVFDDGDRPSGIPERFSGSNSGNTATLTISRVEAGDEADYYCQVWDGGSDDRGYVFGTGTKVTVL ?
## Result > 7.70

## Task Consider the binder shown here: ABU-288 (antibody, V domains shown) VH: QVQLQESGPGLVKPSQTLSLTCTVSGGSISSGLYHWSWIRQPAGKGLEWIGRIFSSGSTAYSPSLKSRVIISADTSKNQFSLKLSSVTAADTAVYYCARDSPLKFDSFGYPLYGMDVWGQGTTVTVSS VL: DIQMTQSPSSLSASVRDKVTITCRASQSISSCLNWYQQKPGKAPKVLIYAASSLQSGVPSRFSGSGSGTDFTLTISSVQPEDFATYYCQQSYSVPHTFGQGTKVEIK What is its recorded pKd?
## Result > 9.00

## Task Fill in the blank: the reported pKd of ABU-361 (antibody, V domains shown) VH: EVQLVESGGGLIQPGGSLRLSCAASGLTVSSNYMSWVRQAPGKGLEWVSVIYSGGSTYYADSVKGRFTISRDNSTNTLYLQMNSLRAEDTAVYYCARDLDYYGMDVWGQGTTVTVSS VL: DIQLTQSPSSLSASVGDRVTITCRASQGISSYLAWYQQKPGKAPNLLIYAASTLQSGVPSRFSGSGSGTDFTLTISSLQPEDFATYYCQHLNSYPPITFGQGTRLEIK is ____.
## Result > 7.70

## Task If you can, please state the reported pKd value of ABU-359 (antibody, V domains shown) VH: EVQLVESGGGLVQPGGSLRLSCAASGFIVSSNYMTWVRQAPGKGLEWVSVIYSGGSTFYADSVKGRFTISRHNSKNTLFLQMNSLRAEDTAVYYCARDAQNYGMDVWGQGTTVTVSS VL: DIQMTQSPSSLSASVGDRVTITCRASQSISSYLNWYQQKPGKAPKLLIFAASSLQTGAPSRFSGSGSGTDFTLTISSLQPEDFATYYCQQSYSTPPYTFGQGTKLEIK .
## Result > 8.00

## Task Data request, read-out pKd, for ABU-330 (antibody, V domains shown) VH: QVQLQESGPGLVKPSQTLSLTCTVSGGSISSGGYYWSWIRQHPGKGLEWIGYIYYSGSTYYNPSLKSRVTISVDTSKNQFSLKLSSVTAADTAVYYCARGGSGSGWYGGRFDYWGQGTLVTVSS VL: EIVLTQSPATLSLSPGERATLSCRASQSVSSYLAWYQQKPGQAPRLLIYDASNRATGIPARFSGSGSGTDFTLTISSLEPEDFAVYYCQQRSNWLFTFGPGTKVDIK
## Result > 8.00

## Task Can you share its pKd? I mean this binder: ABU-356 (antibody, V domains shown) VH: EVQLVESGGGLIQPGGSLRLSCAASGFTVSSNYMNWVRQAPGKGLEWVSVIYSGGSTFYADSVKGRFTISRDNSKNTLYLQMNSLRAEDTAVYYCARDRVVYGMDVWGQGTTVTVSS VL: DIQMTQSPSSLSASVGDRVTITCQASQDIINYLNWYQQKPGKAPKLLIYGASNLETGVPSRFSGGGSGTDFTFTISSLQPEDIATYYCHQYDNLPPTFGQGTRLEIK
## Result > 8.00

## Task Request the reported pKd associated with ABU-317 (antibody, V domains shown) VH: QVQLVESGGGVVQPGWSLRLSCAASGFTFSSFAMYWVRQAPGKGLEWVAVISYDGANKYYADSVKGRFTISRDNSKNTLYLQVNSLRVEDTAVYYCARGPDYYDTGGYFDLWGRGTLVTVSS VL: QSVLTQPPSVSAAPGQKVTISCSGSSSNIGNNYVSWYQQLPGTAPKLLIYDNNKRPSGIPDRFSGSKSGTSATLGITGLQTGDEADYYCGTWDSSLSAGVFGGGTKLTVL
## Result > 7.70

## Task Any idea what pKd was measured for ABU-329 (antibody, V domains shown) VH: EVQLVESGGGLVQPGGSLRLSCAASGFTFSSYWMHWVRQAPGKGLVWVSRIKSDGSSTSYADSVKGRFTISRDNAKNTLYLQMNSLRAEDTAVYYCAGKKIYYGSSFDPWGQGTLVTVSS VL: NFMLTQPHSVSESPGKTVTISCTRSSGSIASNYVQWYQQRPGSAPTTVIYEDNQRPSGVPDRFSGSIDSSSNSASLTISGLKTEDEADYYCQSYDSSNQVFGGGTKLTVL ?
## Result > 8.00

## Task Please report the recorded pKd for ABU-372 (antibody, V domains shown) VH: EVQLVESGGGLVQPGGSLRLSCAASGVTVSRNYMSWVRQAPGKGLEWVSVIYSGGSTDYADSVKGRFTISRHNSKNTLYLQMNSLRVEDTAVYYCARDGYGMDVWGQGTTVTVSS VL: DIQLTQSPSFLSASVGDRVTITCRASQGISSYLAWYQQKPGKAPNLLIYAASTLQSGVPSRFSGSGSGTEFTLTISSLQPEDFATYYCQQLNSYPPAFGPGTKVDIK .
## Result > 7.70

## Task pKd lookup needed for ABU-348 (antibody, V domains shown) VH: QVQLVESGGGVVQPGKSLRLSCAASGFTFSSYGMHWVRQAPGKGLEWVAVISNYGSNKYHADSVKGRITISRDNSKNTLYLQMNSLRAEDTAVYYCAKGGYYDILTGYFPFDYWGQGTLVTVSS VL: QSALTQPRSVSGSPGQSVTISCTGTSSDVGGYNYVSWYQQYPGKAPKLMIYEVSKRPSGVPDRFSGSKSGNTASLTISGLQAEDEADYYCCSYAGSYTWVFGTGTKVTVL , thanks.
## Result > 8.00
